Assay: chemical genetic growth profiling, strain panel (AID 1159580);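 note: tested at 20 µM; growth read once vehicle control cultures reached saturation at 30 °C; 1 = growth at the plate median or of vehicle wells; lower values mean less growth of the strain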
Details: S. cerevisiae deletion strains, growth OD, locus YJL157C, strain FAR1, hits give low values
Out of some 5,500 compounds screened, about 2,000 (36%) were called active. Not shown: some 18% with an inconclusive outcome. The list shows a part of the results.
measured.quantity: normalized growth

Study these solved cases before continuing.
[
  {
    "compound.string": "N/C(=N/OC(=O)c1ccc([N+](=O)[O-])cc1)c1c(Cl)cccc1Cl",
    "normalized growth": "0.863 (inactive)"
  },
  {
    "compound.string": "Cc1cc(Br)c(O)c(/C=N\\NC(=S)NC(C)(C)C)c1",
    "normalized growth": "0.911 (inactive)"
  },
  {
    "compound.string": "CC(C)(C)NC(=S)N/N=C\\c1cc(Br)c(O)c(Br)c1",
    "normalized growth": "0.957 (inactive)"
  },
  {
    "compound.string": "FC(F)(F)Sc1ccc(OCc2n[nH]c(=S)n2-c2ccccc2)cc1",
    "normalized growth": "0.92 (inactive)"
  },
  {
    "compound.string": "N/C(=N/OC(=O)c1cnn(-c2ccc([N+](=O)[O-])cc2)c1C(F)(F)F)c1ccc(Cl)cc1",
    "normalized growth": "0.973 (inactive)"
  }
]

With those in mind, consider the next compound.
Suppose we examine the compound O=C(Nc1cc2ccccc2s1)N1CCN(Cc2c(F)cccc2Cl)CC1 ; what normalized growth value has been reported?
0.913 (inactive)

====

Experiment: chemical genetic growth profiling, strain panel (AID 1159580);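 note: tested at 20 µM; growth read once vehicle control cultures reached saturation at 30 °C; 1 = growth at the plate median or of vehicle wells; lower values mean less growth of the strain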
Details: S. cerevisiae deletion strains, growth OD, locus YDL134C, strain PPH21, hits give low values
Out of some 5,500 compounds screened, about 2,000 (36%) were called active. Another 18% or so got no clear call; they are omitted. The list shows a part of the results.
measured.quantity: normalized growth
Could you respond with only the numeric value?

Observe how each entry below is paired with its result.
[
  {
    "compound": "CC(C)(C)OC(=O)NCc1n[nH]c(=S)n1-c1ccccc1",
    "measured.quantity": "normalized growth",
    "measurement": 1.01
  },
  {
    "compound": "CC(=O)O[C@@H]1c2c(ccc3ccc(=O)oc23)OC(C)(C)[C@@H]1OC(=O)CC(C)C",
    "measured.quantity": "normalized growth",
    "measurement": 0.977
  },
  {
    "compound": "CC(=O)Oc1ccccc1C(=O)Oc1ccccc1C(=O)O",
    "measured.quantity": "normalized growth",
    "measurement": 1.02
  },
  {
    "compound": "CC(=O)OCC(=O)[C@@]1(O)CCC2C3C[C@H](C)C4=CC(=O)C=CC4(C)C3[C@@H](O)CC21C (stereo not given in full)",
    "measured.quantity": "normalized growth",
    "measurement": 1.01
  }
]

Turning now to a further record.
Query (compound): CC1(C)Oc2ccc3ccc(=O)oc3c2CC1O (stereo not given) ; field requested: normalized growth
0.974

====

Listed here are molecules together with their documented normalized growth.
Test: chemical genetic growth profiling, strain panel (AID 1159580);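 note: tested at 20 µM; growth read once vehicle control cultures reached saturation at 30 °C; 1 = growth at the plate median or of vehicle wells; lower values mean less growth of the strain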
Conditions: S. cerevisiae deletion strains, growth OD, locus YER111C, strain swi4, hits give low values
Among all 5,500 compounds or so, about 2,000 (36%) were called active. Another 18% or so got no clear call; they are omitted. The list shows a part of the results.
// no unit string in output, number only

[
  {
    "molecule": "C[C@H]1O[C@@H](O[C@H]2[C@@H](O)C[C@H](O[C@H]3[C@@H](O)C[C@H](O[C@H]4CC[C@]5(C)C6C[C@@H](O)[C@]7(C)[C@@H](C8=CC(=O)OC8)CC[C@]7(O)C6CC[C@@H]5C4)O[C@@H]3C)O[C@@H]2C)C[C@H](O)[C@@H]1O (stereo partly drawn)",
    "measurement": 1.01
  },
  {
    "molecule": "C[C@]12CCC3C(CC[C@]4(O)C[C@@H](O)CC[C@]34C=O)[C@@]1(O)CCC2C1=CC(=O)OC1 (stereo partly drawn)",
    "measurement": 1.02
  }
]

Okay, next one:
# get_value(readout='normalized growth', item= CC(=O)OC1CC[C@@]2(C)C(CCC3C2CC[C@]2(C)C(C4=CC(=O)OC4)C(OC(C)=O)CC32O)C1 (stereo partly drawn) )
0.978
